test system: T-47D spheroids with HUVEC/MSC, viability; assay: Anticancer human tumor T-47D cell line growth inhibition [PI3K]; details: second compound 0.316 µM; first compound 0.0316 µM; active means viability on the fitted dose curve at most 10% of control; inactive means the rest;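 further: spheroids exposed to agents for seven days before reading; percent of DMSO vehicle control luminescence so 100% = untreated growth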
Form entry, call: pick from 1.0 for active, 0.0 for inactive

Here are 5 compounds together with their reported answers.
Cn1ncc(Cl)c1-c1cc(C(=O)NC(CN)Cc2cccc(F)c2)sc1Cl (stereo unspecified) + COc1c(OCCCN2CCOCC2)ccc2c3n(c(=NC(=O)c4cnc(N)nc4)nc12)CCN3; 0.0
C#Cc1c(F)ccc2cc(O)cc(-c3ncc4c(N5CC6CCC(C5)N6)nc(OCC56CCCN5CC(F)C6)nc4c3F)c12 (stereo unspecified) + Cc1nc(NC(=O)N2CCCC2C(N)=O)sc1-c1ccnc(C(C)(C)C(F)(F)F)c1; 0.0
C=CC(=O)N1CCN(c2nc(=O)n(-c3c(C)ccnc3C(C)C)c3nc(-c4c(O)cccc4F)c(F)cc23)C(C)C1 (stereo unspecified) + CC(Nc1ccc2c(c1)OCCn1cc(N3C(=O)OCC3C(F)F)nc1-2)C(N)=O; 0.0
C=CC(=O)N1CCN(c2nc(=O)n(-c3c(C)ccnc3C(C)C)c3nc(-c4c(O)cccc4F)c(F)cc23)C(C)C1 (stereo unspecified) + CC(Nc1ncnc2nc[nH]c12)c1cc2cccc(Cl)c2c(=O)n1-c1ccccc1; 0.0
C#Cc1c(F)ccc2cc(O)cc(-c3ncc4c(N5CC6CCC(C5)N6)nc(OCC56CCCN5CC(F)C6)nc4c3F)c12 (stereo unspecified) + CC(Nc1ncnc2nc[nH]c12)c1cc2cccc(Cl)c2c(=O)n1-c1ccccc1; 0.0

**Query** Please share the test call associated with CC(C)n1nc(-c2ccc3oc(N)nc3c2)c2c(N)ncnc21 + COc1c(OCCCN2CCOCC2)ccc2c3n(c(=NC(=O)c4cnc(N)nc4)nc12)CCN3 .
**Result** 1.0

**Query** Recorded test call requested for CC(C)n1nc(-c2ccc3oc(N)nc3c2)c2c(N)ncnc21 + Cc1nc(NC(=O)N2CCCC2C(N)=O)sc1-c1ccnc(C(C)(C)C(F)(F)F)c1
**Result** 0.0

**Query** Test call, this compound: Cn1ncnc1[C@H]1c2n[nH]c(=O)c3cc(F)cc(c23)N[C@@H]1c1ccc(F)cc1 + COc1c(OCCCN2CCOCC2)ccc2c3n(c(=NC(=O)c4cnc(N)nc4)nc12)CCN3
**Result** 0.0

**Query** Returns: the outcome recorded for CC1(C)CCC(CN2CCN(c3ccc(C(=O)NS(=O)(=O)c4ccc(NCC5CCOCC5)c([N+](=O)[O-])c4)c(Oc4cnc5[nH]ccc5c4)c3)CC2)=C(c2ccc(Cl)cc2)C1 + CC(Nc1ncnc2nc[nH]c12)c1cc2cccc(Cl)c2c(=O)n1-c1ccccc1 in this assay.
**Result** 0.0

**Query** How did this test come out for Cn1nccc1Nc1nccc(-c2ccn(C(CO)c3ccc(Cl)c(F)c3)c(=O)c2)n1 (stereo unspecified) + CC(Nc1ccc2c(c1)OCCn1cc(N3C(=O)OCC3C(F)F)nc1-2)C(N)=O ?
**Result** 0.0

**Query** What call does the record list for Cn1ncnc1[C@H]1c2n[nH]c(=O)c3cc(F)cc(c23)N[C@@H]1c1ccc(F)cc1 + Cc1nc(NC(=O)N2CCCC2C(N)=O)sc1-c1ccnc(C(C)(C)C(F)(F)F)c1 ?
**Result** 0.0
